Measurement Description: activity coefficient (dimensionless); of the first substance listed, at infinite dilution; xn = mol fraction of the nth substance listed
Cond: 333.15 K; 101 kPa; Liquid; Chromatography; x1 = 0
Listed here: items and their measured activity coefficient.

Known results for compounds:
Compound	activity coefficient
c1ccccc1 [benzene] + CCCC[N+]1(C)CCCC1.O=S(=O)([N-]S(=O)(=O)C(F)(F)F)C(F)(F)F	0.93
C=CCCCC [hex-1-ene] + CCC[N+]1(C)CCCC1.O=S(=O)([N-]S(=O)(=O)C(F)(F)F)C(F)(F)F	7.75
CCO [ethanol] + CCC[N+]1(C)CCCC1.O=S(=O)([N-]S(=O)(=O)C(F)(F)F)C(F)(F)F	1.57
ClC(Cl)(Cl)Cl [tetrachloromethane] + CCC[N+]1(C)CCCC1.O=S(=O)([N-]S(=O)(=O)C(F)(F)F)C(F)(F)F	2.62
CC(C)CC(C)(C)C [2,2,4-trimethylpentane] + CCC[N+]1(C)CCCC1.O=S(=O)([N-]S(=O)(=O)C(F)(F)F)C(F)(F)F	22

input: Fill blank: measured activity coefficient of the compound CCCCCCC [heptane] + CCC[N+]1(C)CCCC1.O=S(=O)([N-]S(=O)(=O)C(F)(F)F)C(F)(F)F is ____.
output: 23.1

input: What about CO [methanol] + CCC[N+]1(C)CCCC1.O=S(=O)([N-]S(=O)(=O)C(F)(F)F)C(F)(F)F ?
output: 1.28

input: What about CC(C)O [propan-2-ol] + CCCC[N+]1(C)CCCC1.O=S(=O)([N-]S(=O)(=O)C(F)(F)F)C(F)(F)F ?
output: 1.72

input: What about CCCCCCCCCC [decane] + CCCC[N+]1(C)CCCC1.O=S(=O)([N-]S(=O)(=O)C(F)(F)F)C(F)(F)F ?
output: 49
